Property: Ki; scope: individual molecules
Molecular target: Androgen receptor (Homo sapiens, UniProt P10275, T878A)
Experiment: Displacement of [3H]testosterone from human recombinant androgen receptor T877A mutant expressed in LNCaP cells

SMILES TEXT	Ki
CCOC(=O)c1cc(N(Cc2ccccc2)c2ccc([N+](=O)[O-])cc2)cn1C	7 nM
Cc1ccc(CN(c2ccc([N+](=O)[O-])cc2)c2cc(C(=O)N3CCCC3)n(C)c2)cc1	130 nM
CC(=O)c1ccc(N(Cc2ccccc2)c2cc(C(=O)N3CCCC3)n(C)c2)cc1	130 nM
Cn1cc(N(Cc2ccccc2)c2ccc([N+](=O)[O-])c(C(F)(F)F)c2)cc1C(=O)N1CCCC1	49 nM
Cn1cc(N(Cc2ccccc2)c2ccc([N+](=O)[O-])cc2)cc1C(=O)N1CCCC1	5 nM
COC(=O)c1ccc(N(Cc2ccccc2)c2cc(C(=O)N3CCCC3)n(C)c2)cc1	180 nM

---

Property: log10 Ki; scope: individual compounds
Biological target: UniProt P10275
Sequence (P10275 whole entry): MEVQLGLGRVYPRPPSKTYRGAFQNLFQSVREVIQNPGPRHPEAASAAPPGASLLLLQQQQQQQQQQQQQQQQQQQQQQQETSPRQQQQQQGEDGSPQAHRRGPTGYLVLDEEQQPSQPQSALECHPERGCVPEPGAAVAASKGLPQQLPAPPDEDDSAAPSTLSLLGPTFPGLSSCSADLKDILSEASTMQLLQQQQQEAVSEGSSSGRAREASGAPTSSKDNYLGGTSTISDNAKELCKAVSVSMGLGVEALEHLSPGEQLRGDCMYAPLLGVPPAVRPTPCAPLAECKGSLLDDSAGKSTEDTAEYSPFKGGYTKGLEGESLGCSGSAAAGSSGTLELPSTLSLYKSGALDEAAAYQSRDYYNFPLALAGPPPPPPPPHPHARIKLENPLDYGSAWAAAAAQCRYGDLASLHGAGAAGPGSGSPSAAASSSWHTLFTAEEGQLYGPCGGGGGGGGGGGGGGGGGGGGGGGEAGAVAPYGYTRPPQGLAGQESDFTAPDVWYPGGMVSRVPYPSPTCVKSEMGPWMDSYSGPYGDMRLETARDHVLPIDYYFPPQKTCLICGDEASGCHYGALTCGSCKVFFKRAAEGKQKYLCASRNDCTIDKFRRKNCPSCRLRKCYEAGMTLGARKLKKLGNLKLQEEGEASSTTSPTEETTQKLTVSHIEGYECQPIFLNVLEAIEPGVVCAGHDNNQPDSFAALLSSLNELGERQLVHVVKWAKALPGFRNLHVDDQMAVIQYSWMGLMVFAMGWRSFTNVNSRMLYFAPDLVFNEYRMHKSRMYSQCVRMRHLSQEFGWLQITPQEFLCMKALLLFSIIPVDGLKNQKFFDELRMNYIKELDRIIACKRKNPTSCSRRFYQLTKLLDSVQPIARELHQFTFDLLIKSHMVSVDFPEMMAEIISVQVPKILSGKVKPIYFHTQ
MEASURED ENDPOINT: log10 Ki (log10 of the value in nM)

SMILES TEXT	log10 Ki
Cn1cc(N(Cc2ccccc2)c2ccc([N+](=O)[O-])cc2)cc1C(=O)N1CCCC1	2.04
CN(c1ccc([N+](=O)[O-])cc1)c1cc(C(=O)N2CCCC2)n(C)c1	3.56
CCOC(=O)c1cc(N(Cc2ccccc2)c2ccc([N+](=O)[O-])cc2)cn1C	2.26
Cn1cc(N(CC2CCCCC2)c2ccc([N+](=O)[O-])cc2)cc1C(=O)N1CCCC1	2.72
Cn1cc(N(Cc2ccccc2)c2ccc(C(F)(F)F)cc2)cc1C(=O)N1CCCC1	2.43
Cc1cc(C)cc(N(Cc2ccc(O)cc2)c2cc(C(=O)N3CCCC3)n(C)c2)c1	2.84
Cc1cc(C)cc(N(c2cc(C(=O)N3CCCC3)n(C)c2)C(C)C)c1	3.43
CCN(c1ccc([N+](=O)[O-])cc1)c1cc(C(=O)N2CCCC2)n(C)c1	3.30
Cn1cc(N(Cc2ccccc2)c2ccc([N+](=O)[O-])cc2)cc1C(=O)O	1.88
Cc1cc(C)cc(N(Cc2ccccc2)c2cc(C(=O)N3CCCC3)n(C)c2)c1	2.54
Cn1cc(N(Cc2ccccc2)c2ccc([N+](=O)[O-])cc2)cc1C(=O)N1CCCCC1	2.04
O=C(c1cccc(N(Cc2ccccc2)c2ccc([N+](=O)[O-])cc2)c1)N1CCCC1	2.57
Cc1cc(C)cc(N(CC2CCCCC2)c2cc(C(=O)N3CCCC3)n(C)c2)c1	2.69
Cc1ccc(CN(c2ccc([N+](=O)[O-])cc2)c2cc(C(=O)N3CCCC3)n(C)c2)cc1	2.91
Cn1cc(N(Cc2ccc(O)cc2)c2ccc([N+](=O)[O-])cc2)cc1C(=O)N1CCCC1	2.86
Cn1cc(N(Cc2ccc(CO)cc2)c2ccc([N+](=O)[O-])cc2)cc1C(=O)N1CCCC1	3.26
Cn1cc(N(Cc2ccc(F)cc2)c2ccc([N+](=O)[O-])cc2)cc1C(=O)N1CCCC1	2.90

---

Biological target: Androgen receptor (Homo sapiens, UniProt P10275, T878A)
Assay: Displacement of [3H]testosterone from human recombinant androgen receptor T877A mutant expressed in LNCaP cells
pKi: −log10 of the molar value.
pKi vs 7: at or above is y, below is n.

SMILES TEXT	CLASS ASSIGNMENT
Cn1cc(N(Cc2ccc(CO)cc2)c2ccc([N+](=O)[O-])cc2)cc1C(=O)N1CCCC1	n
Cn1cc(N(Cc2ccccc2)c2ccc(C(F)(F)F)cc2)cc1C(=O)N1CCCC1	y
Cn1cc(N(Cc2ccc(O)cc2)c2ccc([N+](=O)[O-])cc2)cc1C(=O)N1CCCC1	n
Cn1cc(N(Cc2ccccc2)c2ccc([N+](=O)[O-])cc2)cc1C(=O)N1CCCCC1	y
Cn1cc(N(Cc2ccccc2)c2ccc(C#N)cc2)cc1C(=O)N1CCCC1	y
CCN(CC)C(=O)c1cc(N(Cc2ccccc2)c2ccc([N+](=O)[O-])cc2)cn1C	y
Cn1cc(N(Cc2ccccc2)c2ccc([N+](=O)[O-])cc2)cc1C(=O)O	y
Cn1cc(N(Cc2ccccc2)c2ccc([N+](=O)[O-])cc2)cc1C(=O)N1CCc2ccccc21	y
